Sourced from ChEMBL document CHEMBL5303573

# protocol summary: The drug is tested on Bacteroides dorei strain: DSM17855 for biotransformation. The drug concentrations were measured before and after a 12-h incubation by liquid-chromatography-coupled mass spectrometry (LC–MS)
# conditions: phocaeicola dorei, 2 µM
measured quantity: Bacterial Biotransformation

Worked cases, Bacterial Biotransformation given:
> print(dat)
                                   compound                    result
1  CCN1CCCC1CNC(=O)c1cc(S(=O)(=O)CC)c(N)cc1OC (stereo not drawn) [AMISULPRIDE]  Compound NOT metabolized
2  CC(C)N(CCC(C(N)=O)(c1ccccc1)c1ccccn1)C(C)C.O=P(O)(O)O (stereo not drawn) [DISOPYRAMIDE PHOSPHATE]  Compound NOT metabolized
3  CC(Oc1c(Cl)cccc1Cl)C1=NCCN1 (stereo not drawn)      Compound metabolized
4  C#C[C@]1(OC(C)=O)CC[C@H]2[C@@H]3CCC4=CC(=O)CC[C@@H]4[C@H]3CC[C@@]21C [NORETHINDRONE ACETATE]      Compound metabolized
5  CC1OC(OC2C(O)CC(OC3C(O)CC(OC4CCC5(C)C(CCC6C5CCC5(C)C(C7=CC(=O)OC7)CCC65O)C4)OC3C)OC2C)CC(O)C1O (stereo not drawn)      Compound metabolized
6     O=C(O)CCc1nc(-c2ccccc2)c(-c2ccccc2)o1      Compound metabolized
7  Cc1ccc(NC(=O)c2ccc(CN3CCN(C)CC3)cc2)cc1Nc1nccc(-c2cccnc2)n1  Compound NOT metabolized

Ask: Retrieve Bacterial Biotransformation measured for NC(CO)(CO)CO.O=C(c1ccccc1)c1ccc2n1CCC2C(=O)O (stereo not drawn) and print it.
Reply: Compound metabolized

---

# protocol summary: The drug is tested on Dorea formicigenerans strain: ATCC27755 for biotransformation. The drug concentrations were measured before and after a 12-h incubation by liquid-chromatography-coupled mass spectrometry (LC–MS)
# conditions: 2 µM
measured quantity: Bacterial Biotransformation

> print(dat)
                                   compound                    result
1   CNC(=C[N+](=O)[O-])NCCSCc1ccc(CN(C)C)o1      Compound metabolized
2  CC(C(=O)O)c1ccc2c(c1)Cc1cccnc1O2 (stereo not given)      Compound metabolized
3   Cc1ccc(-c2nc3ccc(C)cn3c2CC(=O)N(C)C)cc1  Compound NOT metabolized
4   CCc1oc2ccccc2c1C(=O)c1cc(Br)c(O)c(Br)c1  Compound NOT metabolized

We now examine a further compound.
Ask: Retrieve Bacterial Biotransformation measured for CN(C)C(=O)Oc1cc(OC(=O)N(C)C)cc(C(O)CNC(C)(C)C)c1 (stereo not given) and print it.
Reply: Compound NOT metabolized

---

# protocol summary: The drug is tested on the gut metagenome community of MV24 with ENA study accession number: PRJEB31790 and ENA sample accession number: SAMEA5537505 for biotransformation. The drug concentrations were measured over 9 timepoints collected between 0 and 24 hours of incubation by liquid-chromatography-coupled mass spectrometry (LC–MS)
# Type: ADME
# Design: dose 2 uM, timepoint 0, 1, 2, 4, 6, 8, 12, 18, 24 hours
# conditions: 2 µM
measured quantity: Bacterial Biotransformation

> print(dat)
                                   compound            measured.quantity                result
1  C[C@@H]1C[C@H]2[C@@H]3CCC4=CC(=O)C=C[C@]4(C)[C@@]3(F)[C@@H](O)C[C@]2(C)[C@@]1(O)C(=O)CO  Bacterial Biotransformation  Compound metabolized
2     CC(=O)OCC(CCn1cnc2cnc(N)nc21)COC(C)=O  Bacterial Biotransformation  Compound metabolized
3  C#C[C@]1(OC(C)=O)CC[C@H]2[C@@H]3CCC4=CC(=O)CC[C@@H]4[C@H]3CC[C@@]21C [NORETHINDRONE ACETATE]  Bacterial Biotransformation  Compound metabolized
